Entries and their inhibition at 0.3 µM
study_target: recombinant human PAI-1 (Homo sapiens, UniProt P05121)
Sequence (P05121 24-402): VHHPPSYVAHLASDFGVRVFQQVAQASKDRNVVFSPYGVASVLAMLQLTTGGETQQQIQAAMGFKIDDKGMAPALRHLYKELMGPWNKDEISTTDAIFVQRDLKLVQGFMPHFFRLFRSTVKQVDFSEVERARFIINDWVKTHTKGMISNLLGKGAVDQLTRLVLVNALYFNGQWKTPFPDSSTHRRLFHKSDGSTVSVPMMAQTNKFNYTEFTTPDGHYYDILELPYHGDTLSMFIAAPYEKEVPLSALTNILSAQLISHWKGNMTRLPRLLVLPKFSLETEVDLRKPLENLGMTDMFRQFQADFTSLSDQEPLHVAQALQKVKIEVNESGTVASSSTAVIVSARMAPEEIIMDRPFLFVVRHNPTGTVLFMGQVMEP
method_description: Test Example 2: Human PAI-1 Inhibitory Activity (pH 7.4 HEPES buffer, 10 minutes incubation with two-chain tPA)
Assay type: biochemical
Design: purchased Molecular Innovations, Inc
measurement_setup: read-out: Inhibition Rate of PAI-1 Activity (%)
Description: 0.1 M HEPES, 0.1 M NaCl. 1 mM EDTA. 0.1 % Polyethylene glycol 8,000 (Hampton Research Corporation), 2 mM Dimethyldecylphoshine oxide [Apo-10] (Fluka Corporation)
API: value field is a number in %; no unit string.

Previously resolved entries follow.
molecule	numeric_readout
CC(C)(C)c1ccc(COc2ccc(-c3ccc(OC(F)(F)F)cc3)cc2CCC(=O)O)cc1 [Compound 5]	13
CCN(CC)c1ccc(N(CCCc2ccccc2)C(=O)C(=O)O)c(-c2ccc(OC(F)(F)F)cc2)c1 [Compound 238]	0
CCCCCCCCCCCCCCCOc1ccc(-c2ccc(OC(F)(F)F)cc2)cc1N(CCCCc1ccccc1)C(=O)C(=O)O [Compound 375]	97

Now consider the entry below.
Tell me inhibition at 0.3 µM reported for CC(C)(C)Oc1ccc(-c2ccc(OC(F)(F)F)cc2)cc1N(CCCCc1ccccc1)C(=O)C(=O)O [Compound 373] 0

====

Some compounds, each annotated with its measured inhibition at 0.3 µM.
study_target: recombinant human PAI-1 (Homo sapiens, UniProt P05121)
method_description: Test Example 2: Human PAI-1 Inhibitory Activity (pH 7.4 HEPES buffer, 10 minutes incubation with two-chain tPA)
Assay type: biochemical
Set-up: purchased Molecular Innovations, Inc
measurement_setup: read-out: Inhibition Rate of PAI-1 Activity (%)
Record the value in %, omitting the unit from your answer.

As a guide, the following entries are already answered.
compound	numeric_readout
CCCCCCCCOc1ccc(-c2ccc(OC(F)(F)F)cc2)cc1N(CCCCc1ccccc1)C(=O)C(=O)O	19
CCCCC(Oc1cc(Oc2ccc(OC(F)(F)F)cc2)ccc1OCCCCc1ccccc1)C(=O)O (stereo not drawn)	17
CCC(CC)Oc1ccc(-c2ccc(OC(F)(F)F)cc2)cc1N(CCCCc1ccccc1)C(=O)C(=O)O	8
CCCCC(Oc1ccc(-c2ccc(OC(F)(F)F)cc2)cc1OCCCCc1ccccc1)C(=O)O (stereo not drawn)	11
CCCCC(Oc1cc(-c2ccc(OC(F)(F)F)cc2)ccc1Oc1ccc(C(C)(C)C)cc1)C(=O)O (stereo not drawn)	13

Shifting focus to the compound that follows.
Given the compound O=C(O)CCCCCCCCOc1ccc(-c2ccc(OC(F)(F)F)cc2)cc1N(CCCCc1ccccc1)C(=O)C(=O)O , write its reported inhibition at 0.3 µM. 15

====

study_target: recombinant human PAI-1 (Homo sapiens)
method_description: biochemical
measurement_setup: read-out: Inhibition Rate of PAI-1 Activity (%), Compound Concentration 25µM
metric: inhibition at 25 µM (%)
Please give a number only; it is taken to be in %.

Check out these entries, answers already filled in.
line_notation	unit_spec	inhibition at 25 µM
CC(C)(C)c1ccc(CN(C(=O)C(=O)O)c2ccc(-c3ccc(OC(F)(F)F)cc3)cc2Cl)cc1	%	92
CC(C)(C)c1ccc(Oc2cccc(-c3ccc(OC(F)(F)F)cc3)c2CCC(=O)O)cc1	%	97
O=C(O)CCc1c(Oc2ccc(OC(F)(F)F)cc2)cccc1Oc1ccc(OC(F)(F)F)cc1	%	98

Report inhibition at 25 µM from recombinant human PAI-1 (Homo sapiens) testing of CCCOc1ccc(-c2ccc(OC(F)(F)F)cc2)cc1N(Cc1ccc(C(C)(C)C)cc1)C(=O)C(=O)O 91

State inhibition at 25 µM on recombinant human PAI-1 (Homo sapiens). Entry: CCCCc1ccc(CN(C(=O)C(=O)O)c2ccc(-c3ccc(C(C)(C)C)cc3)cc2)cc1 89

Give measured inhibition at 25 µM for CCC(CC)Oc1ccc(N(Cc2ccc(C(C)(C)C)cc2)C(=O)C(=O)O)cc1-c1ccc(OC(F)(F)F)cc1 (recombinant human PAI-1 (Homo sapiens)). 73

====

study_target: recombinant human PAI-1 (Homo sapiens)
method_description: Test Example 2: Human PAI-1 Inhibitory Activity (pH 7.4 HEPES buffer, 10 minutes incubation with two-chain tPA)
Assay type: biochemical
Parameters: purchased Molecular Innovations, Inc
measurement_setup: read-out: Inhibition Rate of PAI-1 Activity (%)
As shown below, each of these molecules has a reported inhibition at 3 µM value.
Write the number in % without appending the unit.

Completed entries (count: 3):
molecule	inhibition at 3 µM / %
CC(C)(C)c1ccc(CN(C(=O)CCCC(=O)O)c2ccc(-c3ccc(OC(F)(F)F)cc3)cc2)cc1	20
CC(C)(C)c1ccc(CN(C(=O)C(=O)O)c2cc(C(F)(F)F)ccc2-c2ccc(OC(F)(F)F)cc2)cc1	99
O=C(O)C(=O)N(CCCCc1ccccc1)c1cc(-c2ccc(OC(F)(F)F)cc2)ccc1OC1CCCCC1	85

Now consider the entry below.
Consider the molecule CCCCCCOc1ccc(-c2ccc(OC(F)(F)F)cc2)cc1OC(CCCCCC)C(=O)O (centres unmarked) . State its measured inhibition at 3 µM. 95

====

# inhibition at 3 µM annotations
study_target: recombinant human PAI-1 (Homo sapiens, UniProt P05121)
method_description: Test Example 2: Human PAI-1 Inhibitory Activity (pH 7.4 HEPES buffer, 10 minutes incubation with two-chain tPA)
Type: biochemical
Set-up: purchased Molecular Innovations, Inc
measurement_setup: read-out: Inhibition Rate of PAI-1 Activity (%)
Number in %, nothing else.

compound	inhibition at 3 µM / %
CC(C)(C)c1ccc(Oc2ccc(-c3ccc(OC(F)(F)F)cc3)cc2OCC(=O)O)cc1 [Compound 302]	98

Proceeding to the next compound to report its inhibition at 3 µM.
Provide the reported inhibition at 3 µM (system: recombinant human PAI-1 (Homo sapiens, UniProt P05121)) for CCCOc1ccc(-c2ccc(OC(F)(F)F)cc2)cc1N(Cc1ccc(C(C)(C)C)cc1)C(=O)C(=O)O [Compound 188] 97

====

study_target: recombinant human PAI-1 (Homo sapiens, UniProt P05121)
method_description: Test Example 2: Human PAI-1 Inhibitory Activity (pH 7.4 HEPES buffer, 10 minutes incubation with two-chain tPA)
Type: biochemical
Set-up: purchased Molecular Innovations, Inc
measurement_setup: read-out: Inhibition Rate of PAI-1 Activity (%)
Experimental: 0.1 M HEPES, 0.1 M NaCl. 1 mM EDTA. 0.1 % Polyethylene glycol 8,000 (Hampton Research Corporation), 2 mM Dimethyldecylphoshine oxide [Apo-10] (Fluka Corporation)
metric: inhibition at 1 µM (%)
Just the number in %, nothing appended.

compound	unit_spec	inhibition at 1 µM
CCCCC(Oc1cc(Oc2ccc(OC(F)(F)F)cc2)ccc1OCc1ccc(C(C)(C)C)cc1)C(=O)O (centres unmarked)	%	63
CCCCCOc1cc(-c2ccc(C(F)(F)F)cc2)ccc1N(CCCCc1ccccc1)C(=O)C(=O)O	%	77
CCCCC(Oc1cc(-c2ccc(OC(F)(F)F)cc2)ccc1Oc1ccc(C(C)(C)C)cc1)C(=O)O (centres unmarked)	%	87

Now turn to the next compound.
Answer with the recorded inhibition at 1 µM for the compound listed here: CCCCCCOc1ccc(-c2ccc(OC(F)(F)F)cc2)cc1OC(CCCCCC)C(=O)O (centres unmarked) 93

====

study_target: recombinant human PAI-1 (Homo sapiens, UniProt P05121)
method_description: Test Example 2: Human PAI-1 Inhibitory Activity (pH 7.4 HEPES buffer, 10 minutes incubation with two-chain tPA)
Assay type: biochemical
Design: purchased Molecular Innovations, Inc
measurement_setup: read-out: Inhibition Rate of PAI-1 Activity (%)
Some molecules, each annotated with its measured inhibition at 0.1 µM.
Report the figure in % without appending any unit label.

Look over these answered cases.
molecule	study_target	inhibition at 0.1 µM [%]
CC(C)(C)c1ccc(Oc2cc(-c3cc(Cl)ccc3Cl)ccc2/C=C/C(=O)O)cc1 [Compound 483]	recombinant human PAI-1 (Homo sapiens, UniProt P05121)	0
CCCCCOc1ccc(-c2ccc(OC(F)(F)F)cc2)cc1N(CCCCC)C(=O)C(=O)O [Compound 366]	recombinant human PAI-1 (Homo sapiens, UniProt P05121)	8
CC(C)(Oc1cc(-c2ccc(OC(F)(F)F)cc2)ccc1OCc1ccc(C(C)(C)C)cc1)C(=O)O [Compound 106]	recombinant human PAI-1 (Homo sapiens, UniProt P05121)	0

Specify reported inhibition at 0.1 µM for the molecule shown: CCCOc1ccc(N(Cc2ccc(C(C)(C)C)cc2)C(=O)C(=O)O)c(-c2ccc(OC(F)(F)F)cc2)c1 [Compound 198] 11

====

study_target: recombinant rat PAI-1 (Rattus norvegicus)
Sequence (P20961 24-402): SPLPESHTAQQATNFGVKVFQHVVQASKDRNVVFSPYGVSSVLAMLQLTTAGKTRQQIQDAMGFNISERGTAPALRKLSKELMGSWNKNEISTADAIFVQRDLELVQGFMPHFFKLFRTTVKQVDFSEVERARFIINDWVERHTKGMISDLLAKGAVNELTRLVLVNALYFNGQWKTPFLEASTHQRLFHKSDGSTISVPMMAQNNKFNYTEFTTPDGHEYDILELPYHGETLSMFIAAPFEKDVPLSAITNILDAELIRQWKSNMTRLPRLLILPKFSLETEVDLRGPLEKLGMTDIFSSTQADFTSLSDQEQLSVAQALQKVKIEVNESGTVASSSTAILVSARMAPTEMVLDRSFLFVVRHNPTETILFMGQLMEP
method_description: biochemical
measurement_setup: read-out: Inhibition Rate of PAI-1 Activity (%)
metric: inhibition at 0.3 µM (%)
Form entry: value (%) — number only.

# annotated cases, reported inhibition at 0.3 µM shown
line_notation	unit_spec	inhibition at 0.3 µM
CC(C)(C)c1ccc(CN(C(=O)C(=O)O)c2ccc(Cl)cc2-c2ccc(OC(F)(F)F)cc2)cc1	%	0
CCCOc1ccc(-c2ccc(OC(F)(F)F)cc2)cc1N(Cc1ccc(C(C)(C)C)cc1)C(=O)C(=O)O	%	0
CC(C)(C)c1ccc(COc2ccc(Oc3ccc(OC(F)(F)F)cc3)cc2CCC(=O)O)cc1	%	3
CCC(CC)Oc1ccc(N(CCCc2ccccc2)C(=O)C(=O)O)cc1-c1ccc(OC(F)(F)F)cc1	%	0
CC(C)(C)c1ccc(COc2cccc(Oc3ccc(OC(F)(F)F)cc3)c2CCC(=O)O)cc1	%	0

Next up:
Give a short answer stating reported inhibition at 0.3 µM for CC(C)(C)c1ccc(CN(C(=O)C(=O)O)c2ccc(OCc3ccccc3)c(-c3ccc(OC(F)(F)F)cc3)c2)cc1 . 8
